Where these numbers come from: patent US8476449B2

tested_system: Aβ42 aggregate (Homo sapiens)
Construct: Aβ (1-42) peptide; purchased Peptide Institute, Inc
Sequence (P05067 672-713 limits assumed): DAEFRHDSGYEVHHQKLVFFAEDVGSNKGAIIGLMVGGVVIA
protocol_description: Evaluation experiment of binding to amyloid β (filter radioactivity)
test_parameters: Aβ42 aggregate 30 nmol/L, incubation 3 hours
readout_kind: Binding to the Aβ42 aggregate (proportion of radioactivity count on the filter)

compound | tested_system | result
CCOC(=O)CN1C(=O)/C(=C/c2ccc(-c3cccc([125I])c3)o2)SC1=S [Radioactive iodine-labeled compound 1] | Aβ42 aggregate (Homo sapiens) | significantly lower
O=C1/C(=C/c2ccc(-c3cccc([125I])c3)o2)NC(=S)N1CCc1c[nH]cn1 [Radioactive iodine-labeled compound 3] | Aβ42 aggregate (Homo sapiens) | significantly lower
CCOC(=O)CN1C(=O)/C(=C/c2ccc(-c3cccc([125I])c3)o2)NC1=S [Radioactive iodine-labeled compound 2] | Aβ42 aggregate (Homo sapiens) | significantly lower
